So I've got a bunch of molecules here, and I need their Ki values.
experimentalSystem: human histamine H4 receptor (Homo sapiens, UniProt Q9H3N8)
Construct: purchased PerkinElmer Inc; host or cells: CHO-K1
Sequence (Q9H3N8 whole entry): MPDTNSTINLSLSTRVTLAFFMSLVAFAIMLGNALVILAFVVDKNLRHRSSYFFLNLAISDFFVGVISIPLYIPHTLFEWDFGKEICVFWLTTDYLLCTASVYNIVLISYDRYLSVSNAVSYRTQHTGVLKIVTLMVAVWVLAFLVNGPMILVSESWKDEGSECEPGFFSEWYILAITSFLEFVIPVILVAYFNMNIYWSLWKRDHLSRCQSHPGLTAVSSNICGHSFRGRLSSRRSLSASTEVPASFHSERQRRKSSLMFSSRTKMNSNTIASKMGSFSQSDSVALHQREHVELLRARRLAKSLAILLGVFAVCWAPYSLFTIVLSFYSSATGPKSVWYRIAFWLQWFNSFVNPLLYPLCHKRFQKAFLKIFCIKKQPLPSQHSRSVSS
assayInfo: Evaluation of Human H4 Receptor Affinity ([3H]histamine binding)
statedConditions: inhibition constant Ki, CHO-K1 membrane preparation, read-out: Evaluation of H4 Receptor Affinity
Where a name gives a salt, the structure may show the parent alone.

Tell us which Ki value is on record for N#CCOCCOCCN1CCN(c2nc(N)nc3c2CCc2cc(OCc4ccc(Cl)cc4)ccc2-3)CC1 [Example 10] < 100 nM

Give me measured Ki, please, for this molecule: Nc1nc2c(c(N3CCN(CCO[C@H]4C[C@@H](C(=O)O)C4)CC3)n1)CCc1cc(OCc3ccc(OC(F)(F)F)cc3F)ccc1-2 [Example 205] < 100 nM

Provide measured Ki value, entry: Nc1nc2c(c(N3CCN(CCO[C@H]4C[C@@H]5[C@H](C4)[C@H]5C(=O)O)CC3)n1)CCc1cc(OCc3ccc(OC(F)(F)F)cc3)ccc1-2 [Example 146] 100 to 500 nM

For the molecule CN1CCN(c2nc(N)nc3c2CCc2cc(OCc4ccc(F)cc4)ccc2-3)CC1 [Example 196] , give its reported Ki. < 100 nM

Item Nc1nc2c(c(N3CCN(CCO[C@H]4C[C@@H](C(=O)NO)C4)CC3)n1)CCc1cc(OCc3ccc(OC(F)(F)F)cc3)ccc1-2 [Example 189] : provide Ki < 100 nM

For the molecule CN1CCN(c2nc(N)nc3c2CCc2cc(NS(=O)(=O)c4ccc(Cl)c(F)c4)ccc2-3)CC1 [Example 45] , give its reported Ki. 100 to 500 nM

Consider the molecule Nc1nc2c(c(N3CCN(CCc4cccc(OCC(=O)O)c4)CC3)n1)CCc1cc(OCc3ccc(Cl)cc3)ccc1-2 [Example 139, dihydrochloride] . State its measured Ki. 100 to 500 nM
